Sourced from PubChem BioAssay (NCI)

List of growth values.
System: HS 578T breast
assay_remarks: NCI-60 one-dose screen, 48 h (100 = growth as untreated, 0 = no growth, -100 = all killed)
condition_description: 10 µM unless noted
This is part of a sample that, as a whole, favours compounds with a hit. Of some 83,000 tested, about 20% had one in any assay. The source made the active and inactive calls. Rule for the calls: active = growth percent below 10; inactive = the rest.

Guide cases for growth, answers given:
CCN(CC)CCCN1C(=O)c2c(c(C)c3c(oc4cc(OC)ccc43)c2C)C1=O : 108% (inactive)
COc1ccccc1/C=C1\COc2ccc(O)cc2C1=O : 83.5% (inactive)

Query string: Give growth for the following compound: CN1CCN(Cc2ccc(NC(=O)c3cccc(C#Cc4c(N)ncc5ccc(F)cc45)c3)cc2C(F)(F)F)CC1
Result string: -37.9% (active)

Query string: Check the records and state growth for O=c1c(/C=C/c2ccco2)nnc2sc(Nc3ccc(Cl)cc3)nn12
Result string: 91% (inactive)

Query string: Recall and state the measured growth for O=C1c2cccc3cccc(c23)C(=O)N1N1C(=O)c2cccc3c(N4CCNCC4)ccc(c23)C1=O .
Result string: 85.9% (inactive)

Query string: Determine its reported growth: Cc1nc(Nc2ncc(C(=O)Nc3c(C)cccc3Cl)s2)cc(N2CCN(CCO)CC2)n1
Result string: -8.57% (active)

Query string: State its growth for this compound: COc1cccc(C2C(C#N)=C(N)Oc3cc(OCCCCCC[P+](c4ccccc4)(c4ccccc4)c4ccccc4)ccc32)c1 (centres undefined)
Result string: -16.5% (active)

Query string: Quick one: give measured growth for COc1ccc(-c2c[nH]c(C(=O)O)c2-c2cc(OC)c(OC)c(OC)c2)cc1
Result string: 9.64% (active)

Query string: Give the reported value of growth for this record: C=C(CNCCO)[C@@H]1CC[C@]2(CO)CC[C@]3(C)[C@H](CC[C@@H]4[C@@]5(C)CCC(NCCc6ccc(O)cc6)C(C)(C)[C@@H]5CC[C@]43C)[C@@H]12 (some centres undefined)
Result string: -55.9% (active)

Query string: Return the recorded growth value; entry: O=C1c2cc3c(cc2-c2c1c1ccc(Cl)cc1c(=O)n2CCCn1ccnc1)OCO3
Result string: 46.3% (inactive)

Query string: Specify growth for CC/C=C\C/C=C\C[C@H](O)C/C=C1/C(=O)C=C[C@@H]1C/C=C\CCCC(=O)OC and stop.
Result string: 32.6% (inactive)

Query string: Answer with the recorded growth for the compound listed here: COc1cc(-c2[nH]ncc2Nc2ccc(Cl)cc2)cc(OC)c1OC
Result string: 66% (inactive)

Query string: Name the recorded growth of the compound listed here: COc1ccc(-c2cc(-c3cccnc3)nc3sc4c(Cl)nnnc4c23)cc1OC
Result string: 89.2% (inactive)

Query string: Fill in reported growth for this entry: COc1ccc(C2=C(CN)C(O)NC(=NCC(=O)c3ccc4ccccc4c3)N2)cc1 (centres undefined)
Result string: 116% (inactive)

Query string: Given the compound Cc1c(O)c(O)cc2c3c(oc12)CC(c1ccc2c(c1)OCO2)CC3=O (centres undefined) , write its reported growth.
Result string: 92.2% (inactive)

Query string: Retrieve growth measured for CSc1nnc(-c2cc3c([nH]c4ccccc43)c(-c3cccc(O)c3)n2)n1-c1ccc(C)cc1 and print it.
Result string: 37.3% (inactive)

Query string: Give me measured growth, please, for this compound: S=c1nc(CS)[nH]c2ccccc12
Result string: 94.1% (inactive)

Query string: Look up and state reported growth for COc1ccc2c(O)c(/C=C3\N=Nc4nc(C)ccc43)oc2c1CC1CCNCC1
Result string: 57.9% (inactive)

Query string: Using the record for O=C1/C(=C/c2ccc(F)c(F)c2)CN(C(=O)C(Cl)Cl)C/C1=C\c1ccc(F)c(F)c1 , state its measured growth.
Result string: -38.5% (active)
